Test: RAM signaling pathway blockade in yeast – S. cerevisiae, Pdr1DBD-CYC8 efflux-inhibited sensitized strain, primary screen (AID 1298);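 further: 0% = DMSO untreated cells without growth and 100% = 10 µM 1-NA-PP1 full growth; higher means more yeast growth rescued from 5-FOA killing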
Settings: S. cerevisiae cbk1-as DSE1-URA3 strain, 5-FOA growth OD615, 2 d; at 50 µM; stronger effect = higher value
The source made the active and inactive calls.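 How the source made its calls: active means RAM network inhibition above 8.4% in each of two replicates, 3 SD over the compound average; inconclusive means above 8.4% inhibition in only one replicate; inactive means 8.4% inhibition or less in each replicate.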
Items are presented alongside their recorded RAM network inhibition.
Readout Name: RAM network inhibition

{"Molecule": "CCCNC(=O)CS(=O)Cc1nc(-c2ccc(OC)cc2)oc1C (stereo unspecified)", "Readout Name": "RAM network inhibition", "Result": "3.43% (inactive)"}
{"Molecule": "O=C(CNS(=O)(=O)c1ccc(C(=O)N2CCCCC2)cc1)N1CCCCC1", "Readout Name": "RAM network inhibition", "Result": "3.77% (inactive)"}
{"Molecule": "COc1cc2c(cc1NC(C)=O)CCCC2", "Readout Name": "RAM network inhibition", "Result": "1.23% (inactive)"}
{"Molecule": "CN1CCN(c2ccccc2NC(=O)C(Cc2ccccc2)n2cccc2)CC1 (stereo unspecified)", "Readout Name": "RAM network inhibition", "Result": "4.23% (inactive)"}
{"Molecule": "O=C(Cn1nnc(-c2ccccc2NC(=O)c2ccccc2F)n1)NCc1ccco1", "Readout Name": "RAM network inhibition", "Result": "4.52% (inactive)"}
{"Molecule": "CC(C)CC(NC(=O)c1ccco1)C(=O)Nc1ccc2c(c1)OCCO2 (stereo unspecified)", "Readout Name": "RAM network inhibition", "Result": "1.72% (inactive)"}
{"Molecule": "Cc1ccc2cc(CCNC(=O)C(C)(C)C)c(=O)[nH]c2c1", "Readout Name": "RAM network inhibition", "Result": "3.53% (inactive)"}
{"Molecule": "O=C(NC1CCCCC1)c1ccc(S(=O)(=O)N2CCOCC2)cc1", "Readout Name": "RAM network inhibition", "Result": "-0.73% (inactive)"}
{"Molecule": "CC1=C(C(=O)OC(C)C)C(c2c(O)ccc3ccccc23)NC(=O)N1 (stereo unspecified)", "Readout Name": "RAM network inhibition", "Result": "2.42% (inactive)"}
{"Molecule": "COc1ccc(NC(=O)C2CCCNC2)cc1OCC(C)C (stereo unspecified)", "Readout Name": "RAM network inhibition", "Result": "2.92% (inactive)"}
{"Molecule": "Clc1ccccc1N1CCN(c2ncnc3nc[nH]c23)CC1", "Readout Name": "RAM network inhibition", "Result": "5.77% (inactive)"}

----------
Assay: reducers of endogenous Her2 protein level, primary screen, SKBR3 breast tumor cells, AlphaScreen, ATP viability (AID 461);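 on viability: percent of carrier control wells set as 100% viability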
Settings: 18-24 h, measured here: SKBR3 viability, ATP luminescence, at 10 µM
Items are presented alongside their recorded viability.

{"Compound": "Cc1ccc(S(=O)(=O)N2CCCC2C(=O)n2nc(C)cc2C)cc1 (centres undefined)", "viability [%]": 114}
{"Compound": "Cc1cc(NC(=O)C2=C(O)c3ccccc3S(=O)(=O)N2C)no1", "viability [%]": 96.5}
{"Compound": "O=C(OCc1cc2ccccc2[nH]c1=O)c1ccco1", "viability [%]": 106}
{"Compound": "CCOC(=O)N1CCN(S(=O)(=O)c2cc(C)c(C)cc2C)CC1", "viability [%]": 96.5}
{"Compound": "CCOCCCNC(=O)C1CCC(=O)N1CCc1ccccc1 (centres undefined)", "viability [%]": 100}
{"Compound": "CC/C(O)=C(/C#N)c1nnc2n1CCCCC2", "viability [%]": 100}
{"Compound": "Cc1cc(C)n2cc(CSc3nnnn3-c3ccc(Cl)cc3)nc2n1", "viability [%]": 89.5}
{"Compound": "CCN(CC)C(=O)CSc1nc2ccccc2c(=O)n1CCC(=O)NCc1ccc(F)cc1", "viability [%]": 93}
{"Compound": "COc1cc(-c2nn3c(-c4cccnc4)nnc3s2)cc(OC)c1OC", "viability [%]": 101}
{"Compound": "COc1ccccc1C(=O)N1CCN=C1SCc1cccnc1", "viability [%]": 102}
{"Compound": "O=C(CCCC(=O)N(CC(=O)NC1CCCCC1)Cc1ccc2c(c1)OCO2)Nc1ccccn1", "viability [%]": 102}
{"Compound": "O=C(CCCn1ncn2c(cc3occc32)c1=O)N1CCc2ccccc2C1", "viability [%]": 126}
{"Compound": "COc1cccc(-c2noc(C3CCCN(C(=O)Cc4ccccc4)C3)n2)c1 (centres undefined)", "viability [%]": 95}
{"Compound": "CCCc1nnc(NC(=O)CCC(=O)N2CCN(CCOc3ccc(C)cc3)CC2)s1", "viability [%]": 93.5}
{"Compound": "CC(C)(C)OC(=O)NC(CCNC=C1C(=O)OC(C)(C)OC1=O)C(=O)O (centres undefined)", "viability [%]": 105}
{"Compound": "Nc1sccc1C(=O)c1ccccc1", "viability [%]": 85.5}
{"Compound": "CCN(CC)CCNC(=O)c1ccc(N)cc1", "viability [%]": 97.5}
{"Compound": "Cc1cc(C)c(OCC(=O)Nc2ccc3c(c2)OCO3)cc1C", "viability [%]": 106}
{"Compound": "COCCCn1c(SCC(=O)Nc2cccc(C)n2)nnc1-c1ccco1", "viability [%]": 95}
{"Compound": "Cc1cc(C)n2nc(SCc3cc(=O)n4ccccc4n3)nc2n1", "viability [%]": 100}
{"Compound": "O=C(O)CCCC(=O)NCCc1ccncc1", "viability [%]": 98}
{"Compound": "CCn1c(SC)nc2c(c1=O)SC(C)C2 (centres undefined)", "viability [%]": 111}
{"Compound": "CS(=O)(=O)N1CCN(c2ccccc2NC(=O)c2cccs2)CC1", "viability [%]": 99.5}
{"Compound": "CCc1ccccc1OCCCCCNCCO", "viability [%]": 85.5}

----------
Items are presented alongside their recorded Her2 level.
Molecular target: Receptor tyrosine-protein kinase erbB-2 (Homo sapiens) (UniProt P04626)
Sequence (P04626 whole entry, looked up): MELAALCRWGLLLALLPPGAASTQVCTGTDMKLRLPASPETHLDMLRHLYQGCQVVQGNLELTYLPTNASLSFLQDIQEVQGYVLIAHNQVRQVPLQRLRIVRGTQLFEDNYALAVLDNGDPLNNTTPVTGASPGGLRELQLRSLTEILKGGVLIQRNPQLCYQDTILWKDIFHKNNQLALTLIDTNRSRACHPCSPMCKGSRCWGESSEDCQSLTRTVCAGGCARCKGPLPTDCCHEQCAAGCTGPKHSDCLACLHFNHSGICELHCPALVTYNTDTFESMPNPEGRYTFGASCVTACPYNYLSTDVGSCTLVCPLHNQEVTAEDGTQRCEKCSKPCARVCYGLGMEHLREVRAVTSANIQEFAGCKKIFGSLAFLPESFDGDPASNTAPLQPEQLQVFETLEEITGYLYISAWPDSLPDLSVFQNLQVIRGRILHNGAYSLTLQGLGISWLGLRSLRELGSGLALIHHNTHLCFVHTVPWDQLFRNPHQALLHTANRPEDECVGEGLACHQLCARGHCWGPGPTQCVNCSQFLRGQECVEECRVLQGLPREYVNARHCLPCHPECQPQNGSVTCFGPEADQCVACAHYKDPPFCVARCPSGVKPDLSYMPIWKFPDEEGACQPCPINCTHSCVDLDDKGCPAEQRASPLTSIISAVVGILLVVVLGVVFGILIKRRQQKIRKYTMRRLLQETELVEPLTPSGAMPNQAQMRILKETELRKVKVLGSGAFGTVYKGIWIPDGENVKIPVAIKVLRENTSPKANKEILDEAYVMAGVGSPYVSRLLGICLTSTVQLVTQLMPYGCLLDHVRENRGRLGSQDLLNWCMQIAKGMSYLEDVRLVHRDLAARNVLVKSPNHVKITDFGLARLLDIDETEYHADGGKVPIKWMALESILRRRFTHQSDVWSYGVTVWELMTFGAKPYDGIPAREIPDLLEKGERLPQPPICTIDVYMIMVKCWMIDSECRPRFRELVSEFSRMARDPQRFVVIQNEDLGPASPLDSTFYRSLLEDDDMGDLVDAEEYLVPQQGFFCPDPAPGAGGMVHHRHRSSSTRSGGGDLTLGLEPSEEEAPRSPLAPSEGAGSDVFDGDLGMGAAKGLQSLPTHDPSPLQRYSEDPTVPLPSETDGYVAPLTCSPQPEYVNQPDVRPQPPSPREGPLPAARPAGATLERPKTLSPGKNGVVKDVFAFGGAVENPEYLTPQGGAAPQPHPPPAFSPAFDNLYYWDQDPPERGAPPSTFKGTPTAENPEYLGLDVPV
Assay: reducers of endogenous Her2 protein level, primary screen, SKBR3 breast tumor cells, AlphaScreen, ATP viability (AID 461);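 on Her2 level: lower value means less Her2 protein in the cells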;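 on viability: percent of carrier control wells set as 100% viability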
Conditions: 18-24 h, at 10 µM, stronger effect = lower value

{"Compound": "COc1ccc2c(c1)C1(C)CC(C)(C)N2C(=O)N1c1ccccc1 (stereo not given)", "Experimental Target": "Receptor tyrosine-protein kinase erbB-2 (Homo sapiens) (UniProt P04626)", "Unit Abbreviation": "%", "Her2 level": 89.5}
{"Compound": "O=C(COc1cccc(Oc2ccccc2)c1)Nc1ncccn1", "Experimental Target": "Receptor tyrosine-protein kinase erbB-2 (Homo sapiens) (UniProt P04626)", "Unit Abbreviation": "%", "Her2 level": 106}
{"Compound": "CCOCCCNS(=O)(=O)c1ccc2c(c1)oc(=O)n2CC(=O)OCC", "Experimental Target": "Receptor tyrosine-protein kinase erbB-2 (Homo sapiens) (UniProt P04626)", "Unit Abbreviation": "%", "Her2 level": 98.5}
{"Compound": "COC(=O)c1ccccc1NC(=O)C1CC(=O)N(c2ccc(F)cc2)C1 (stereo not given)", "Experimental Target": "Receptor tyrosine-protein kinase erbB-2 (Homo sapiens) (UniProt P04626)", "Unit Abbreviation": "%", "Her2 level": 77}
{"Compound": "CCOC(=O)c1c(NCc2ccc3c(c2)OCO3)c2ccccc2[nH]c1=O", "Experimental Target": "Receptor tyrosine-protein kinase erbB-2 (Homo sapiens) (UniProt P04626)", "Unit Abbreviation": "%", "Her2 level": 69.5}
{"Compound": "O=C(NCCC1=CCCCC1)C1CCN(C(=O)Nc2ccccc2)CC1", "Experimental Target": "Receptor tyrosine-protein kinase erbB-2 (Homo sapiens) (UniProt P04626)", "Unit Abbreviation": "%", "Her2 level": 128}
{"Compound": "Cc1ccc(-c2nnn(CC(=O)N(CC(=O)NC3CCCCC3)c3cnc4ccccc4c3)n2)o1", "Experimental Target": "Receptor tyrosine-protein kinase erbB-2 (Homo sapiens) (UniProt P04626)", "Unit Abbreviation": "%", "Her2 level": 92}
{"Compound": "CC(C)Cn1c(N)c(C(=O)COC(=O)c2ccc3c(c2)OCCO3)c(=O)n(C)c1=O", "Experimental Target": "Receptor tyrosine-protein kinase erbB-2 (Homo sapiens) (UniProt P04626)", "Unit Abbreviation": "%", "Her2 level": 102}
{"Compound": "CN(C)c1ccc(-c2nn3c(-c4ccc(Cl)cc4Cl)nnc3s2)cc1", "Experimental Target": "Receptor tyrosine-protein kinase erbB-2 (Homo sapiens) (UniProt P04626)", "Unit Abbreviation": "%", "Her2 level": 71}
{"Compound": "CN(C)[C@@H]1C(=O)C(C(N)=O)=C(O)[C@@]2(O)C(=O)C3=C(O)c4c(O)ccc(Cl)c4[C@@H](O)[C@H]3C[C@@H]12", "Experimental Target": "Receptor tyrosine-protein kinase erbB-2 (Homo sapiens) (UniProt P04626)", "Unit Abbreviation": "%", "Her2 level": 108}

----------
Items are presented alongside their recorded RAM network inhibition.
Assay: RAM signaling pathway blockade in yeast – S. cerevisiae, Pdr1DBD-CYC8 efflux-inhibited sensitized strain, primary screen (AID 1298);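 further: 0% = DMSO untreated cells without growth and 100% = 10 µM 1-NA-PP1 full growth; higher means more yeast growth rescued from 5-FOA killing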
Conditions: S. cerevisiae cbk1-as DSE1-URA3 strain, 5-FOA growth OD615, 2 d; at 50 µM; stronger effect = higher value
Readout Name: RAM network inhibition (%)

{"Compound": "CC(C)(Oc1ccc(Cl)cc1)C(=O)OCC(=O)N1CCCC1", "Quantitative Readout": -1.13}
{"Compound": "CN(CC1CCCO1)S(=O)(=O)c1ccc(C(=O)Nc2nc(-c3ccccn3)cs2)cc1 (stereo not drawn)", "Quantitative Readout": 2.63}
{"Compound": "O=C(O)CCCC(=O)Nc1ccc(Cl)c(Cl)c1", "Quantitative Readout": 1.64}
{"Compound": "COc1ccc(C(=O)Nc2ccccc2-c2nnn(CC(=O)NCc3ccco3)n2)cc1", "Quantitative Readout": 7.41}
{"Compound": "Cc1ccc(CNC(=O)CN(C)S(=O)(=O)c2cccc3cccnc23)cc1", "Quantitative Readout": -1.33}
{"Compound": "Oc1ccc(-c2nc3cnccn3c2Nc2ccc3c(c2)OCCO3)cc1", "Quantitative Readout": 7.64}
{"Compound": "COc1ccccc1CNC(=O)CN1CCN(Cc2ccc(Cl)cc2)C1=O", "Quantitative Readout": 0.67}
{"Compound": "COC(=O)c1ccccc1NC(=O)c1c(O)c2c([nH]c1=O)CCCC2", "Quantitative Readout": 1.65}
{"Compound": "Cn1c(NC(=O)c2ccccc2)cc(=O)n(C)c1=O", "Quantitative Readout": 1.26}
{"Compound": "c1coc(CNc2c3c(nc4ccccc24)CCC3)c1", "Quantitative Readout": 0.83}
{"Compound": "N#CC1=C2SCN(Cc3ccco3)CN2C(=O)CC1c1c(F)cccc1Cl (stereo not drawn)", "Quantitative Readout": 4.76}
{"Compound": "CCOc1c(Br)cc(C(N)=O)cc1OC", "Quantitative Readout": 2.56}
{"Compound": "Cc1ccc(S(=O)(=O)NCC(=O)N2CCOCC2)cc1", "Quantitative Readout": 0.68}
{"Compound": "Cc1cccc(OCCCC(=O)Nc2ccc(N3CCOCC3)cc2)c1", "Quantitative Readout": 3.73}
{"Compound": "Cn1c(C(=O)NCc2cccs2)cc2c(=O)n(C)c3ccccc3c21", "Quantitative Readout": 1.75}
{"Compound": "c1ccc(Cc2nnc3sc(-c4ccc5c(c4)OCCO5)nn23)cc1", "Quantitative Readout": 12.8}
{"Compound": "CC1(C)CC(=O)C=C(Nc2ccccc2F)C1", "Quantitative Readout": 1.22}
{"Compound": "COc1c2c(nc3ccccc13)OC(C(C)(O)COC(C)=O)C2 (stereo not drawn)", "Quantitative Readout": 1.41}
{"Compound": "Cc1noc(C(=O)Nc2c(C)n(C)n(-c3ccccc3)c2=O)c1Cl", "Quantitative Readout": 0.38}
{"Compound": "CCOC(=O)N1CCN(C(=O)c2oc3ccc(S(=O)(=O)N4CCOCC4)cc3c2C)CC1", "Quantitative Readout": 4.61}
{"Compound": "CCc1nnc(NC(=O)CSc2nnc(Cc3cccn3C)n2C)s1", "Quantitative Readout": 1.19}
{"Compound": "Cc1nc(-c2ccc(S(=O)(=O)N3CCCCCC3)cc2)cs1", "Quantitative Readout": 1.28}
{"Compound": "O=C(Cn1c(=O)[nH]c2ccsc2c1=O)NC1CCCCC1", "Quantitative Readout": -1.43}
